Target Of Assay: T1, human CCL2 (MCP1) - P8A variant (human, UniProt P13500 24-99)
T1 construct: In-house point mutant that cannot dimerise; also called monomeric human CCL2; monomeric CCL2
Test Method Notes: SPR T200, 37 C, antibody captured, 1:1 model
Measurement Label: T1/2 (h)

[
  {
    "Binder": "Humanized 11K2 (=11K2) (antibody, IgG1, V domains shown, IgG1 with kappa light chain; also called CCL2-0002; humanized 11k2 IgG1) VH: QVQLVQSGAEVKKPGSSVKVSCKASGLTISDTYMHWVRQAPGQGLEWMGRIDPANGNTKFDPKFQGRVTITADTSTSTAYMELSSLRSEDTAVYYCARGVFGFFDYWGQGTTVTVSS VL: DIQMTQSPSSLSASVGDRVTITCKATEDIYNRLAWYQQKPGKAPKLLISGATSLETGVPSRFSGSGSGTDYTLTISSLQPEDFATYYCQQFWSAPYTFGGGTKVEIK",
    "Result Units": "h",
    "Recorded Result": 1.93
  },
  {
    "Binder": "1A4 (antibody, V domains shown, which format stood in each assay is not always stated; also called CCL2-0008) VH: QSLEESGGDLVKPGASLTLTCTASELDFYWICWVRQAPGKGLEWIACIGAGSSGSTYYASWAKGRFTVSKTSSTTVTLQMTSLTAADTATYFCARTGTEFTYYSLWGPGTLVTVSS VL: ALVMTQTPSSVSAAVGGTVTINCQASQSVYNNNMAWYQQKPGQPPKLLIYTASSLASGVPSHFRGSGSGTQFTLTISDLESDDAATYYCAGYKSYSNDEYGFGGGTEVVVK",
    "Result Units": "h",
    "Recorded Result": 2.9
  },
  {
    "Binder": "2F6 (antibody, IgG1, V domains shown, also called CCL2-0014) VH: QSLEESGGGLVQPEGSLTLTCTASGFSFNNNYYMCWVRQAPGKGLEWIGCISTDDSNTHYASWAQGRFTISKASSTALTLQVAGLTVADMATYFCARDAHFTSYGYGFDLWGPGTLVTVSS VL: DIVMTQTPASVSAAVGGTVSINCRASEDIENLVAWYQQKPGQPPKLLIYQASKLASGVPSRFKGSGSGAEFTLTIGDLESADAATYYCQGDYGSGWIMYSFGGGTDLVVK",
    "Result Units": "h",
    "Recorded Result": 0.783
  },
  {
    "Binder": "murine 11K2 (antibody, V domains shown, also called 11K2m; X-0048) VH: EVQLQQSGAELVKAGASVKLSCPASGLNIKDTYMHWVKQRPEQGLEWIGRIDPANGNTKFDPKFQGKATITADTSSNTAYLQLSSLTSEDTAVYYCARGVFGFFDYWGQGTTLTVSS VL: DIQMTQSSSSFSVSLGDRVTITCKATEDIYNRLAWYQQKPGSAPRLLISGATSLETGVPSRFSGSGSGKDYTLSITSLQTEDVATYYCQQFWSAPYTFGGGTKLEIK",
    "Result Units": "h",
    "Recorded Result": 8.63
  },
  {
    "Binder": "1G9 (antibody, IgG1, V domains shown, also called CCL2-0010) VH: QSLEESGGDLVKPGASLTLTCKASGIDFSLYSYMCWVRQAPGKGLEWIACVDAGASGSTYYASWAKGRFTISKTSSTTVTLQMTSLTAADTATYFCARGILYYTWPYPAGAIDAFDSWGPGTLVTVSS VL: AYDMTQTPASVSEPVGGTVTIKCQASESISNYLSWYQQKPGQPPKLLIYKASTLASGVPSRFKGSGSGTEYTVTISGVQSDDAATYYCQQSYSSSNVFNTFGGGTEVVVK",
    "Result Units": "h",
    "Recorded Result": 3.63
  },
  {
    "Binder": "1A5 (antibody, IgG1, V domains shown, also called CCL2-0009) VH: QEQLVESGGDLVKPEGSLTLTCTASGFSFSTSYWMCWVRQAPGKGLELIACISSSIGVTYYASWAEGRFTISKTSSTTVTLQMTSLTVADTATYFCARTTDDNWNVGFNLWGPGTLVTVSS VL: AYDMTQTPASVEVGVGGTVTIKCQASQSIGNRYLSWYQQKPGQPPKLLIYGTSTLASGVSSRFKGSGSGTQFTLTISGVESADSATYYCQQGATISYLDNAFGGGTEVVVK",
    "Result Units": "h",
    "Recorded Result": 2.28
  },
  {
    "Binder": "ABN912 (antibody, IgG1, V domains shown, IgG1 with kappa light chain; also called AB912; CCL2-0003) VH: EVQLVQSGGGLVQPGGSLRLSCAASGFTFSHYWMSWVRQAPGKGLEWLANIEQDGSEKYYVDSVKGRFTISRDNAKNSLYLQMNSLRAEDTAVYFCARDLEGLHGDGYFDLWGRGTLVTVSS VL: AIQLTQSPSSLSASVGDRVILTCRASQGVSSALAWYQQKPGKAPKLLIYDASSLESGVPSRFSGSGSGPDFTLTISSLQPEDFATYFCQQFNSYPLTFGGGTKVEIK",
    "Result Units": "h",
    "Recorded Result": 0.417
  }
]

Data origin: patent US20240360208A1
